The entries below are paired with their reported In Vivo Toxicity Nontoxicity Dose (ip. mg/kg) in C3H/Hej mice.
Test system: C3H/HeJ mice
Assay: In vivo toxicity (MTD / nontoxicity dose), intraperitoneal injection
Settings: highest dose causing no severe irreversible toxicity
Method: This example provides directions for performing in vivo toxicity tests of the compounds of the invention on C3H/HeJ mice. Acute toxicities of the compounds of this invention are evaluated on C3H/HeJ mice (body weight 18-22 g). […] Drug toxicity is evaluated on mice checked daily for 45 days. […]
experimental readout: In Vivo Toxicity Nontoxicity Dose (ip. mg/kg) in C3H/Hej mice

{"compound": "COc1ccc(OCC(=O)N[C@H]2CCc3cc(OC)c(OC)c(OC)c3-c3ccc(SC)c(=O)cc32)cc1", "measurement target": "C3H/HeJ mice", "result": "50 (30) mg/kg"}
{"compound": "COc1cc2c(c(OC)c1OC)-c1ccc(SC)c(=O)cc1C(NC(=O)COc1ccc(C=O)cc1)CC2 (stereo not shown)", "measurement target": "C3H/HeJ mice", "result": "150 (120) mg/kg"}
{"compound": "COc1cc2c(c(OC)c1OC)-c1ccc(SC)c(=O)cc1C(NC(=O)COc1ccccc1[N+](=O)[O-])CC2 (stereo not shown)", "measurement target": "C3H/HeJ mice", "result": "150 (120) mg/kg"}
{"compound": "COc1cc2c(c(OC)c1OC)-c1ccc(SC)c(=O)cc1C(NC(=O)COc1ccc(Br)cc1)CC2 (stereo not shown)", "measurement target": "C3H/HeJ mice", "result": "100 (100) mg/kg"}
